condition.summary: 7 Days at +50°C, 1.0 mg/mL in water;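 further: purity and concentration determined by HPLC on aqueous solutions kept in a stability chamber, with samples analyzed at day 0 and after incubation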
experimental.endpoint: Forced degradation Δ Purity

INSERT INTO measurements (compound, result) VALUES
  ('C=C1NC(=O)[C@H](Cc2c[nH]c3ccccc23)NC(=O)[C@H](NC(=O)[C@H](CCCCN)NC(=O)[C@@H](N)[C@@H](C)CC)CSC[C@@H](C(=O)N[C@H]2C(=O)N3CCC[C@H]3C(=O)NCC(=O)N[C@H](C(=O)N[C@@H](C)C(=O)N[C@@H](C)C(=O)N/C(=C\C)C(=O)NCC(=O)N[C@@H]3CSC[C@@H]4NC(=O)[C@H](Cc5ccc(O)cc5)NC(=O)[C@@H](CS/C=C\NC4=O)NC(=O)[C@H](CC(N)=O)NC(=O)[C@H](Cc4ccccc4)NC3=O)CS[C@H]2C)NC(=O)[C@H](CC(C)C)NC1=O [OG711]', '-2.94%'),
  ('C=C1NC(=O)[C@H](Cc2c[nH]c3ccccc23)NC(=O)[C@H](NC(=O)[C@H](CCCCN)NC(=O)[C@@H](N)[C@@H](C)CC)CSC[C@@H](C(=O)N[C@H]2C(=O)N3CCC[C@H]3C(=O)NCC(=O)N[C@H](C(=O)N[C@@H](C)C(=O)N[C@@H](CC(N)=O)C(=O)N/C(=C\C)C(=O)NCC(=O)N[C@@H]3CSC[C@@H]4NC(=O)[C@H](Cc5ccccc5)NC(=O)[C@@H](CS/C=C\NC4=O)NC(=O)[C@H](CC(N)=O)NC(=O)[C@H](Cc4ccccc4)NC3=O)CS[C@H]2C)NC(=O)[C@H](CC(C)C)NC1=O [OG718]', '-12.84%');

Taken from paper PMC5997364.
